# protocol.description: Megestrol Acetate in plasma samples by GC/MS
# Assay type: in vivo
# settings: human, 6 mg, Sub 4, 6 mg dose, 1 h post dosing
reported.endpoint: concentration at 1 h (ng/mL)
One number for each entry, in ng/mL.

Enquiry: I am curious: what concentration at 1 h value has been reported for CC(=O)O[C@]1(C(C)=O)CC[C@H]2[C@@H]3C=C(C)C4=CC(=O)CC[C@]4(C)[C@H]3CC[C@@]21C [megestrol acetate] ?
Return: 37.4

###

# protocol.description: Megestrol Acetate in plasma samples by GC/MS
# Type: in vivo
# settings: human, 1.5 mg, Sub 5, 1.5 mg dose, 8 h post dosing
reported.endpoint: concentration at 8 h

Enquiry: I am curious: what concentration at 8 h value has been reported for CC(=O)O[C@]1(C(C)=O)CC[C@H]2[C@@H]3C=C(C)C4=CC(=O)CC[C@]4(C)[C@H]3CC[C@@]21C [megestrol acetate] ?
Return: 0.521 ng/mL

Cited source for all entries: patent US20040259851A1
